TEST SYSTEM: RORγ-LBD (Homo sapiens, UniProt P51449)
Construct: made in house; host or cells: SF9 cells (baculovirus); used as diluted lysate
Sequence (P51449 269-508 limits assumed): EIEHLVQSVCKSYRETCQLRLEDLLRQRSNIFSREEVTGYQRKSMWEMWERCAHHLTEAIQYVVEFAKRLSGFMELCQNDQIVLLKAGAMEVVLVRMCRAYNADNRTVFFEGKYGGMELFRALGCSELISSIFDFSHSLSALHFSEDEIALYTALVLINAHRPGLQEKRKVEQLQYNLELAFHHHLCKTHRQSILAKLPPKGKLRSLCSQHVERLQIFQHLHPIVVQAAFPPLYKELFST
ASSAY NAME: RORγ-Ligand Binding Domain (LBD) TR-FRET Assay
Format: biochemical
EXPERIMENTAL CONTEXT: RORγ-LBD TR-FRET assay
pEC50: −log10 of the molar value.
Items are presented alongside their recorded pEC50.
READOUT NAME: pEC50

{"MOLECULE": "C/C(=C\\c1ccc2c(c1)CC(CC(=O)O)CN2S(=O)(=O)c1cccc(C(F)(F)F)c1)c1c(F)cccc1Cl (stereo not drawn) [Example 150]", "TEST SYSTEM": "RORγ-LBD (Homo sapiens, UniProt P51449)", "READOUT NAME": "pEC50", "RESULT": "< 5.00"}
{"MOLECULE": "C/C(=C\\c1ccc2c(c1)N(S(=O)(=O)c1cccc(C(F)(F)F)c1)C[C@H](N)C2)c1c(F)cccc1Cl [Example 164]", "TEST SYSTEM": "RORγ-LBD (Homo sapiens, UniProt P51449)", "READOUT NAME": "pEC50", "RESULT": "> 6.30"}
{"MOLECULE": "C/C(=C\\c1ccc2c(c1)N(S(=O)(=O)c1cccc(C(F)(F)F)c1)C[C@H](CCC(=O)N1CCS(=O)(=O)CC1)O2)c1c(F)cccc1Cl [Example 127C]", "TEST SYSTEM": "RORγ-LBD (Homo sapiens, UniProt P51449)", "READOUT NAME": "pEC50", "RESULT": "> 6.30"}
{"MOLECULE": "CCn1cc(S(=O)(=O)N2C[C@H]([C@@H](C)NS(C)(=O)=O)Oc3ccc(/C=C(\\C)c4c(F)cccc4Cl)cc32)c(Cl)n1 [Example 104]", "TEST SYSTEM": "RORγ-LBD (Homo sapiens, UniProt P51449)", "READOUT NAME": "pEC50", "RESULT": "> 6.30"}
{"MOLECULE": "CC(O[C@@H]1Cc2ccc(OCc3c(F)cccc3Cl)cc2N(S(=O)(=O)c2cccc(C(F)(F)F)c2)C1)C(=O)O (stereo partly drawn) [Example 173C]", "TEST SYSTEM": "RORγ-LBD (Homo sapiens, UniProt P51449)", "READOUT NAME": "pEC50", "RESULT": "> 6.30"}
{"MOLECULE": "C/C(=C\\c1ccc2c(c1)N(S(=O)(=O)c1cccc(C(F)(F)F)c1)C[C@H](CCC(=O)N1CCOCC1)O2)c1c(F)cccc1Cl [Example 127B]", "TEST SYSTEM": "RORγ-LBD (Homo sapiens, UniProt P51449)", "READOUT NAME": "pEC50", "RESULT": "> 6.30"}
